assay-comment: Drug uptake in Lewis rat blood at 3 mg/kg, po measured after 4 hrs
Format: ADME, organism-based
conditions-used: read-out: Drug uptake
measured-property: concentration at 4 h (µM)
Express it in µM; write the number only.

Q: Answer with the recorded concentration at 4 h of "C[C@@H](Oc1nc(-c2cnn(C(F)F)c2)cc2ncsc12)[C@H]1CNC(=O)O1" only.
A: 1.34

====

assay-comment: Drug uptake in Lewis rat blood at 3 mg/kg, po measured after 8 hrs
Type: ADME, organism-based
conditions-used: read-out: Drug uptake
measured-property: concentration at 8 h (nM)
Express it in nM; write the number only.

Q: Answer with the recorded concentration at 8 h of "C[C@@H](Oc1nc(-c2cnn(C(F)F)c2)cc2ncsc12)[C@H]1CNC(=O)O1" only.
A: 827
